- Test System: human ApoC3 (human)
- Sequence (chain, as listed by the source): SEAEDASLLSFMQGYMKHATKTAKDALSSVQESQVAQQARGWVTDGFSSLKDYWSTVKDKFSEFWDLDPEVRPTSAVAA
- Assay Method Text: SPR pH 5.5, antibody immobilized
Would you kindly list pKd for each of these binders?
# pKd: negative log10 of molar concentration; output just the value

Consider mAb15 (antibody, V domains shown) VH: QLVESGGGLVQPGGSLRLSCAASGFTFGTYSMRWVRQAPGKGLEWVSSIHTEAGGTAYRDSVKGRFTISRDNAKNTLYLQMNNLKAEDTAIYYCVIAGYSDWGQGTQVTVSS VL: DIVMTQSPLSLPVTPGESASISCKTSQGLVHSGGKTYFYWFLQKPGQSPQQLIYQVSNRASGVPDRFTGSGSGTDFTLKISRVEAEDAGVYYCAQGTYYPHTFGSGTRLEIK . Its measured pKd is 7.06

GET /value?item= mAb3 (antibody, V domains shown) VH: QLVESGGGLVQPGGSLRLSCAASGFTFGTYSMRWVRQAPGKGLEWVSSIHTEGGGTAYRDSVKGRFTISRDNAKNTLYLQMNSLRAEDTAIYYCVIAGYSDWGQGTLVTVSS VL: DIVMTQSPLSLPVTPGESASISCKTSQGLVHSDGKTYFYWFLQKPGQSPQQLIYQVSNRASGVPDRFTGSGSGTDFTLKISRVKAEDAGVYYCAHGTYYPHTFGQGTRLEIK &field=pKd returns 6.49

So for mAb11 (antibody, V domains shown) VH: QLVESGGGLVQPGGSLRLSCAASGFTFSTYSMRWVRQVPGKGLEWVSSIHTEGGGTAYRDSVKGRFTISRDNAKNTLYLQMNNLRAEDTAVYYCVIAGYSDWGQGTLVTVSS VL: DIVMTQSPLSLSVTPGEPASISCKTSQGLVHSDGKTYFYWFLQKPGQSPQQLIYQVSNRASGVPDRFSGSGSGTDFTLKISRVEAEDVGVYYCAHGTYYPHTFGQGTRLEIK , the logged pKd turned out to be 6.30

Record summary for mAb17 (antibody, V domains shown) VH: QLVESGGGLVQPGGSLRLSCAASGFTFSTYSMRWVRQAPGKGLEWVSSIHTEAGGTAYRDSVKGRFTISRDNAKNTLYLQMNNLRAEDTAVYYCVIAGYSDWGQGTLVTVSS VL: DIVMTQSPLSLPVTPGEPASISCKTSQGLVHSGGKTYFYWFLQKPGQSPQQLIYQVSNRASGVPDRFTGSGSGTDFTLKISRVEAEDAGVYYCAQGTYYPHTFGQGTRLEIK : reported pKd = 6.59

Quick note, pKd for mAb1 (antibody, V domains shown) VH: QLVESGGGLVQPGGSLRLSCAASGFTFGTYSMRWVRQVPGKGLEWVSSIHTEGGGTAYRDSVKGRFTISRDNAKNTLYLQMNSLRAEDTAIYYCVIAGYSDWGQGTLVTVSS VL: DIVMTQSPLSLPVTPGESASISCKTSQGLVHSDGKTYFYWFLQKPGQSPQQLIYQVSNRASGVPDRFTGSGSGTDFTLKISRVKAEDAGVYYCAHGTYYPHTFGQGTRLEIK landed at 6.60

The measured values listed here are drawn from patent US10538583.
